# target or system: human CYP17 (Homo sapiens, UniProt P05093)
# Sequence (P05093 whole entry): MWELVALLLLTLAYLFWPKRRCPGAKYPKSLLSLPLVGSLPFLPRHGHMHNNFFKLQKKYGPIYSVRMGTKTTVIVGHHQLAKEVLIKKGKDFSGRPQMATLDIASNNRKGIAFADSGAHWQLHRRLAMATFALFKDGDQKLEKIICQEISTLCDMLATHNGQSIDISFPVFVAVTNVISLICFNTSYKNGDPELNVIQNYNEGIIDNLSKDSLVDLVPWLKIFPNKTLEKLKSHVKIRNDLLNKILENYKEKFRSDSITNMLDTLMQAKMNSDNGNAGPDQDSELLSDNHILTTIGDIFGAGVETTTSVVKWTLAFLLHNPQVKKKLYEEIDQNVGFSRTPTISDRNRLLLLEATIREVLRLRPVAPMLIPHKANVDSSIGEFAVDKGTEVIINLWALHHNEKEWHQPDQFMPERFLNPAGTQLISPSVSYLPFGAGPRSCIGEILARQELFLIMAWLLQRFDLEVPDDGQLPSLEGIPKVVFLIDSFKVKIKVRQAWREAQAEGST
# assay: Cell-based human CYP17 inhibition assay, H295R adrenocortical carcinoma cells
# Parameters: H295R Adrenocortical carcinoma cells [NCI-H295A, ATCC Number CRL-2128, American Type Culture Collection; host or cells: H295R adrenocortical carcinoma cells
# assay context: 16 hours at 37° C., read-out: CYP17 (human H295R adrenal cells)
pIC50: −log10 of the molar value.
parameter measured: pIC50

>>> df
                                    compound  parameter_measured   test_result
 0  CCC(c1ccc(-c2ccc(O)cc2)o1)n1ccnc1 (centres unmarked)               pIC50        > 7.30
 1  CCC(c1cnc(-c2ccc(F)cc2F)s1)n1ccnc1 (centres unmarked)               pIC50        > 7.30
 2  CCC(c1ccc(-c2cccc(OC)c2)cn1)n1ccnc1 (centres unmarked)               pIC50        > 7.30
 3  CC(=O)Nc1ccc(-c2ccc(C(C)n3ccnc3)nc2)cc1 (centres unmarked)               pIC50  5.00 to 6.70
 4  CCC(c1cnc(-c2cn[nH]c2)s1)n1ccnc1 (centres unmarked)               pIC50  6.70 to 7.30
 5  CCC(c1cnc(-c2ccc(O)cc2)s1)n1ccnc1 (centres unmarked)               pIC50  6.70 to 7.30
 6  CCC(c1ccc(-c2ccccc2C#N)cn1)n1ccnc1 (centres unmarked)               pIC50  5.00 to 6.70
 7  CCC(c1cnc(-c2ccc(OC)nc2)s1)n1ccnc1 (centres unmarked)               pIC50  6.70 to 7.30
 8  CC(c1cnc(-c2ccc(F)cc2F)s1)n1ccnc1 (centres unmarked)               pIC50        > 7.30
 9  CCc1cc(F)ccc1-c1ncc(C(CC)n2ccnc2)s1 (centres unmarked)               pIC50        > 7.30
10  CCC(c1cnc(-c2ccc(=O)[nH]c2)s1)n1ccnc1 (centres unmarked)               pIC50  5.00 to 6.70
11  CC(c1ccc(-c2ccc(N)cc2)cn1)n1ccnc1 (centres unmarked)               pIC50  5.00 to 6.70
12  CCC(c1ccc(-c2cccc(F)c2)cn1)n1ccnc1 (centres unmarked)               pIC50        > 7.30
13  CCC(c1cccc(-c2ccc(OC)cc2)n1)n1ccnc1 (centres unmarked)               pIC50  6.70 to 7.30
